Just for reference, patent US9045435B2 is where these values come from.

EXPERIMENTAL SYSTEM: UniProt Q15858
EXPERIMENT SUMMARY: Electrophysiology (EP) assay, whole-cell patch clamp
CONDITION LABEL: resting block dissociation constant; HEK-293 cells; spread on the next grid line; read-out: EP Nav1.7 Kr
VALUE TYPE: Kd (µM)

>>> measured("CN1CCN(c2nc(-c3ccc(Oc4ccc(F)cc4)cc3)c3ccccc3n2)CC1 [Compound 13k]")
2.09
>>> measured("OCC(CO)Nc1nc(-c2ccc(Oc3ccc(F)cc3)cc2)c2ccccc2n1 [Compound 13u]")
55.3
>>> measured("O=C1NCCN1CCNc1nc(-c2ccc(Oc3ccc(F)cc3)cc2)c2ccccc2n1 [Compound 13v]")
23.7
>>> measured("COC(=O)[C@@H]1CCCN1c1nc(-c2ccc(Oc3ccc(F)cc3)cc2)c2ccccc2n1 [Compound 13f]")
23.9

====

EXPERIMENTAL SYSTEM: human Nav1.7 (Homo sapiens, UniProt Q15858)
EXPERIMENT SUMMARY: FLIPR or FLIPR TETRA sodium dye assay with KCl and test article pre-incubation
Type: cell-based
CONDITION LABEL: sodium dye assay with KCl; recombinant Nav1.7/HEK293 cells; read-out: FLIPR Nav1.7 IC50 (μM) ± SEM
Attribute: IC50
VALUE TYPE: IC50

>>> measured("NC(=O)[C@H](CO)Nc1nc(-c2ccc(Oc3ccc(F)cc3)cc2)c2ccccc2n1 [Compound 13a]")
"0.836 µM"
>>> measured("CCOc1nc(-c2ccc(Oc3ccc(F)cc3)cc2)c2ccccc2n1 [Compound 13y]")
"0.995 µM"
>>> measured("CCN1CCN(c2nc(-c3ccc(Oc4ccc(F)cc4)cc3)c3ccccc3n2)CC1 [Compound 13h]")
"0.236 µM"
>>> measured("OC[C@@H](O)c1nc(-c2ccc(Oc3ccc(F)cc3)cc2)c2ccccc2n1")
"0.849 µM"
>>> measured("O=C1CN(c2nc(-c3ccc(Oc4ccc(F)cc4)cc3)c3ccccc3n2)CCN1 [Compound 13b]")
"0.839 µM"
>>> measured("CN(C)CCCNc1nc(-c2ccc(Oc3ccc(F)cc3)cc2)c2ccccc2n1 [Compound 13p]")
"0.205 µM"
>>> measured("OC[C@@H](O)CNc1nc(-c2ccc(Oc3ccc(F)cc3)cc2)c2ccccc2n1 [Compound 13r]")
"0.32 µM"
>>> measured("O=C1NCCN1CCNc1nc(-c2ccc(Oc3ccc(F)cc3)cc2)c2ccccc2n1 [Compound 13v]")
"0.204 µM"
>>> measured("NC(=O)c1nc(-c2ccc(Oc3ccccc3)cc2)c2ccccc2n1")
"0.097 µM"
>>> measured("Fc1ccc(Oc2ccc(-c3nc(Oc4ccccn4)nc4ccccc34)cc2)cc1 [Compound 13z]")
"1.91 µM"
>>> measured("OC1CCN(c2nc(-c3ccc(Oc4ccc(F)cc4)cc3)c3ccccc3n2)CC1 [Compound 13i]")
"0.428 µM"
>>> measured("CN1CCN(c2nc(-c3ccc(Oc4ccc(F)cc4)cc3)c3ccccc3n2)CC1 [Compound 13k]")
"0.418 µM"
>>> measured("NC(=O)CNc1nc(-c2ccc(Oc3ccc(F)cc3)cc2)c2ccccc2n1 [Compound 13x]")
"> 20 µM"
>>> measured("CN(N)c1nc(-c2ccc(Oc3ccc(F)cc3)cc2)c2ccccc2n1 [Compound 13g]")
"0.309 µM"
>>> measured("Nc1nc(-c2ccc(Oc3ccc(F)cc3)cc2)c2ccccc2n1 [Compound 13e]")
"0.426 µM"
>>> measured("COC(=O)[C@@H]1C[C@@H](O)CN1c1nc(-c2ccc(Oc3ccc(F)cc3)cc2)c2ccccc2n1 [Compound 13m]")
"0.833 µM"
>>> measured("CCOC(=O)c1nc(-c2ccc(Oc3ccccc3)cc2)c2ccccc2n1")
"1.57 µM"

====

EXPERIMENTAL SYSTEM: UniProtKB Q15858
EXPERIMENT SUMMARY: FLIPR or FLIPR TETRA sodium dye assay with KCl and test article pre-incubation
Format: cell-based
CONDITION LABEL: sodium dye assay with KCl; recombinant Nav1.7/HEK293 cells; read-out: FLIPR Nav1.7 IC50 (μM) ± SEM
Attribute: IC50
VALUE TYPE: IC50 (µM)

>>> measured("NC(=O)[C@@H]1CCCN1c1nc(-c2ccc(Oc3ccc(F)cc3)cc2)c2ccccc2n1 [Compound 13l]")
0.105
>>> measured("OCCN1CCN(c2nc(-c3ccc(Oc4ccc(F)cc4)cc3)c3ccccc3n2)CC1 [Compound 13j]")
0.104
>>> measured("CNc1nc(-c2ccc(Oc3ccc(F)cc3)cc2)c2ccccc2n1 [Compound 13n]")
0.294
>>> measured("Fc1ccc(Oc2ccc(-c3nc(NCCCn4ccnc4)nc4ccccc34)cc2)cc1 [Compound 13o]")
0.325

====

EXPERIMENTAL SYSTEM: hNav1.7 (Homo sapiens, UniProt Q15858)
Sequence (Q15858 1-1977 isoform Q15858-3): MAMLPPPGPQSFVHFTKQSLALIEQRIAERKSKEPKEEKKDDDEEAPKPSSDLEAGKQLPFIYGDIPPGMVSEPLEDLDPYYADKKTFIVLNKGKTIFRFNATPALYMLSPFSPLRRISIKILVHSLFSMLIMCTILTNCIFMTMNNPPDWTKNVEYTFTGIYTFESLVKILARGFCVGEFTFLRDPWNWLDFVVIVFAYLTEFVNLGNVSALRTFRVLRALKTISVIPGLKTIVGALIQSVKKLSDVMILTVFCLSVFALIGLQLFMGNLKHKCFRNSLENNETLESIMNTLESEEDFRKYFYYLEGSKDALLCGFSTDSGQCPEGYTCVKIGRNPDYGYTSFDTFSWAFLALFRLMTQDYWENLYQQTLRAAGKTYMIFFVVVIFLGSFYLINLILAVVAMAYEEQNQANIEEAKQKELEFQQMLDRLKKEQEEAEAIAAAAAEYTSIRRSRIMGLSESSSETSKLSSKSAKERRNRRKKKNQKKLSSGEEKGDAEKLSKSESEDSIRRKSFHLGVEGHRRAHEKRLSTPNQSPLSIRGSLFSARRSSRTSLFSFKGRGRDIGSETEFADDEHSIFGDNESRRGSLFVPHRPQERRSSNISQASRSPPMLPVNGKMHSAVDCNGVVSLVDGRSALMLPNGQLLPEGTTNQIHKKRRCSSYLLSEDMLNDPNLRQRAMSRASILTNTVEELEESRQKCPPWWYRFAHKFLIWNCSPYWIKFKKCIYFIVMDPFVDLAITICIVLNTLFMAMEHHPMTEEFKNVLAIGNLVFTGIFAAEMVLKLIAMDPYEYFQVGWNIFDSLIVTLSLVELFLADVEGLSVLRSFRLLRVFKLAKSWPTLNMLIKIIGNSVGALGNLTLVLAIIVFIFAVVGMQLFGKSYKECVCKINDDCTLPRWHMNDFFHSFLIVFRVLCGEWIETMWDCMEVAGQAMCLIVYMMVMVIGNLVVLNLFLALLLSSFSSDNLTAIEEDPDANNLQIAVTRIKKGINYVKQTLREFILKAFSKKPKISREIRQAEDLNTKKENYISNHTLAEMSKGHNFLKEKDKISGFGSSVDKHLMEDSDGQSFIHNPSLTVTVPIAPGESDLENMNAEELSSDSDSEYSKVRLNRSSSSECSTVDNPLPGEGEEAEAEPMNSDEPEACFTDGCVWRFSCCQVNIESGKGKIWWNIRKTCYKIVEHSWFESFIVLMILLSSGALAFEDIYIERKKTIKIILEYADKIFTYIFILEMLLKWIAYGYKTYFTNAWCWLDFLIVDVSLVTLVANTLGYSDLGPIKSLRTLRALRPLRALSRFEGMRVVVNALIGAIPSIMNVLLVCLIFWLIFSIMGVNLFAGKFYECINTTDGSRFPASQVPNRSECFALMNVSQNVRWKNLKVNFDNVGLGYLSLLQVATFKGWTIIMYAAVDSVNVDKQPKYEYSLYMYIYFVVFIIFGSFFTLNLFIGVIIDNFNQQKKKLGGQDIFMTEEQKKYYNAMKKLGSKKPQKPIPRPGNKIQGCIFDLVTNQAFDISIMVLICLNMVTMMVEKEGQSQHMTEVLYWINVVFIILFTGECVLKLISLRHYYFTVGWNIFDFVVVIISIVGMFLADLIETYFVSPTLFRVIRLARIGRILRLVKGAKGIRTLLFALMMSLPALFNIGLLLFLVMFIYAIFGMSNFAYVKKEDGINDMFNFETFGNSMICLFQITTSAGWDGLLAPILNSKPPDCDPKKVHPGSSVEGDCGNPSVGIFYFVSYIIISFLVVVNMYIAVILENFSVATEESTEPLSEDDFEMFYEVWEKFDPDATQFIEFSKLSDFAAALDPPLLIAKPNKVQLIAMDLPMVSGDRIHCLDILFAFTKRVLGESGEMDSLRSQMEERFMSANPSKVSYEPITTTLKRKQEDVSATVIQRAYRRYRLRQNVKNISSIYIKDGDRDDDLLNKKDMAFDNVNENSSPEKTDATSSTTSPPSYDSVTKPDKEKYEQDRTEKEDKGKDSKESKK
EXPERIMENT SUMMARY: Electrophysiology (EP) assay, whole-cell patch clamp
Type: cell-based
Protocol: The hNav1.7 expressing HEK-293 cells were plated on 35 mm culture dishes pre-coated with poly-D-lysine in standard DMEM culture media (Mediatech, Inc., Herndon, Va.) and incubated in a 5% CO2 incubator at 37° C. […] Whole cell currents were recorded using the whole-cell patch clamp configuration using an Axopatch 200B amplifier (Axon Instruments, Foster City Calif.), 1322A A/D converter (Axon Instruments) and pClamp software (v. 8; Axon Instruments) and stored on a personal computer. […]
pKi: −log10 of the molar value.
VALUE TYPE: pKi

>>> measured("CN1[C@@H]2CCC[C@H]1C[C@@H](Nc1nc(-c3ccc(Oc4ccc(F)cc4)cc3)c3ccccc3n1)C2 [Compound 13t]")
7.70

====

EXPERIMENTAL SYSTEM: human Nav1.7 (Homo sapiens, UniProt Q15858)
EXPERIMENT SUMMARY: FLIPR or FLIPR TETRA sodium dye assay with KCl and test article pre-incubation
Type: cell-based
CONDITION LABEL: sodium dye assay with KCl; recombinant Nav1.7/HEK293 cells; read-out: FLIPR Nav1.7 IC50 (μM) ± SEM
IC50 strictly under 0.3 µM means Y; at 0.3 µM or over means N.

>>> classification("OC[C@H](O)CNc1nc(-c2ccc(Oc3ccc(F)cc3)cc2)c2ccccc2n1 [Compound 13q]")
"Y"
>>> classification("O=C(O)c1nc(-c2ccc(Oc3ccccc3)cc2)c2ccccc2n1 [Compound 4]")
"N"
>>> classification("OCC(CO)Nc1nc(-c2ccc(Oc3ccc(F)cc3)cc2)c2ccccc2n1 [Compound 13u]")
"Y"
>>> classification("OCCNc1nc(-c2ccc(Oc3ccc(F)cc3)cc2)c2ccccc2n1 [Compound 13c]")
"N"
>>> classification("COC(=O)[C@@H]1CCCN1c1nc(-c2ccc(Oc3ccc(F)cc3)cc2)c2ccccc2n1 [Compound 13f]")
"N"
>>> classification("NN(CCO)c1nc(-c2ccc(Oc3ccc(F)cc3)cc2)c2ccccc2n1 [Compound 13w]")
"Y"
>>> classification("CN(C)CCNc1nc(-c2ccc(Oc3ccc(F)cc3)cc2)c2ccccc2n1 [Compound 13d]")
"N"
>>> classification("NC(=O)C[C@H](Nc1nc(-c2ccc(Oc3ccc(F)cc3)cc2)c2ccccc2n1)C(N)=O [Compound 13s]")
"N"

====

EXPERIMENTAL SYSTEM: hNav1.7 (Homo sapiens, UniProt Q15858)
EXPERIMENT SUMMARY: Electrophysiology (EP) assay, whole-cell patch clamp
Assay type: cell-based
CONDITION LABEL: affinity for the inactivated state of the channel; HEK-293 cells; spread on the next grid line; read-out: EP Nav1.7 Kj
pKi: −log10 of the molar value.
Attribute: pKi
VALUE TYPE: pKi

>>> measured("NC(=O)[C@H](CO)Nc1nc(-c2ccc(Oc3ccc(F)cc3)cc2)c2ccccc2n1 [Compound 13a]")
6.13
>>> measured("O=C1NCCN1CCNc1nc(-c2ccc(Oc3ccc(F)cc3)cc2)c2ccccc2n1 [Compound 13v]")
6.34
>>> measured("COC(=O)[C@@H]1CCCN1c1nc(-c2ccc(Oc3ccc(F)cc3)cc2)c2ccccc2n1 [Compound 13f]")
6.21
>>> measured("OCC(CO)Nc1nc(-c2ccc(Oc3ccc(F)cc3)cc2)c2ccccc2n1 [Compound 13u]")
6.19
>>> measured("CN1CCN(c2nc(-c3ccc(Oc4ccc(F)cc4)cc3)c3ccccc3n2)CC1 [Compound 13k]")
7.15
>>> measured("NC(=O)c1nc(-c2ccc(Oc3ccccc3)cc2)c2ccccc2n1")
6.92
>>> measured("NC(=O)[C@@H]1CCCN1c1nc(-c2ccc(Oc3ccc(F)cc3)cc2)c2ccccc2n1 [Compound 13l]")
6.72
>>> measured("OC[C@H](O)CNc1nc(-c2ccc(Oc3ccc(F)cc3)cc2)c2ccccc2n1 [Compound 13q]")
6.66
